Target: FAAH (Mus musculus (Mouse), UniProt O08914)
Sequence (O08914 whole entry): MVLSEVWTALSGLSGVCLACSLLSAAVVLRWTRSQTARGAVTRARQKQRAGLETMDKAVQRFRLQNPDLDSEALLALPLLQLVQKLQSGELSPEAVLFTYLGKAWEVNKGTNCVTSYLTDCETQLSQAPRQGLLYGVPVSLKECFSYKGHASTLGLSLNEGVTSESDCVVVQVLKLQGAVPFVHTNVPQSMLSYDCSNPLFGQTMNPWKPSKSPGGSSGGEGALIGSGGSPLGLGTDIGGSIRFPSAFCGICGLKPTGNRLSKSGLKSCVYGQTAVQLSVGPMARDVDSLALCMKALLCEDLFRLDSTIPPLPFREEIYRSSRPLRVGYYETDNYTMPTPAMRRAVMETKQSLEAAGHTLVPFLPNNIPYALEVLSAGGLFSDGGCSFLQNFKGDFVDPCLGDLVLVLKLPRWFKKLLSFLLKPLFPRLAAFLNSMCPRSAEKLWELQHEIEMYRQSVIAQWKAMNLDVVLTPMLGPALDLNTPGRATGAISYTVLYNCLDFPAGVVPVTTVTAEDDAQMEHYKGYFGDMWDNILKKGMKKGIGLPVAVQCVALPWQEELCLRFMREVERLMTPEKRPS
Test: Mouse brain proteomes from inhibitor treated mice (oral gavage, sacrificed 4 h after administration, ABPP analysis), FAAH
Format: in vivo, mouse (C57Bl/6J)
Conditions: 5 mg/kg oral gavage
Method: Preparation of Mouse Brain Proteomes from Inhibitor Treated Mice. Inhibitors were administered to wild-type C57Bl/6J by oral gavage in a vehicle, e.g. PEG400/Ethanol/PBS (7/2/1). Each animal was sacrificed 4 h following administration and brain proteomes were prepared and analyzed according to previously established methods (See Niphakis, M. J., et al. (2011) ACS Chem. Neurosci. and Long, J. Z., et al. Nat. Chem. Biol. 5:37-44). Data from this assay is shown in Table 2 (% inhibition at 5 mg/kg).
assay.metric: FAAH % Inh 5 mg/kg (mouse)

compound: O=C(O)C1CCN(Cc2cc(CN3CCCC34CCN(C(=O)OC(C(F)(F)F)C(F)(F)F)CC4)cc(C(F)(F)F)c2)C1 (stereo not shown)
study.system: FAAH (Mus musculus (Mouse), UniProt O08914)
assay.metric: FAAH % Inh 5 mg/kg (mouse)
assay.value: # (# is <25%)

compound: CC1(C)CC2(CCN(C(=O)OC(C(F)(F)F)C(F)(F)F)CC2)CN1Cc1ccc(Cl)cc1N1CCOCC1
study.system: FAAH (Mus musculus (Mouse), UniProt O08914)
assay.metric: FAAH % Inh 5 mg/kg (mouse)
assay.value: # (# is <25%)

compound: Cc1c(CN2CCCC23CCN(C(=O)OC(C(F)(F)F)C(F)(F)F)CC3)cccc1N1CCCCC1
study.system: FAAH (Mus musculus (Mouse), UniProt O08914)
assay.metric: FAAH % Inh 5 mg/kg (mouse)
assay.value: # (# is <25%)

compound: O=C(OC(C(F)(F)F)C(F)(F)F)N1CCC2(CCCN2Cc2cc(N3CCC(F)CC3)cc(C(F)(F)F)c2)CC1
study.system: FAAH (Mus musculus (Mouse), UniProt O08914)
assay.metric: FAAH % Inh 5 mg/kg (mouse)
assay.value: # (# is <25%)

---

target: MAGL (Mus musculus (Mouse)); assay: In vitro competitive activity-based protein profiling (mouse brain membrane fraction or cell lysates), MAGL band; assay type: biochemical; conditions: 1 μM, mouse proteome; read-out: MAGL % Inh 1 μM (mouse)
assay.metric: inhibition at 1 µM

// known answers, use as guide
compound: CC1(C(=O)O)CCN(c2cc(C(F)(F)F)ccc2CN2CCC3(CCN(C(=O)OC(C(F)(F)F)C(F)(F)F)CC3)C2)C1 (stereo not drawn)
assay.value: > 75%
//
compound: CCc1cc(CN2CCC3(CCN(C(=O)OC(C(F)(F)F)C(F)(F)F)CC3)C2)ccc1F
assay.value: > 75%
//
compound: O=C(OC(C(F)(F)F)C(F)(F)F)N1CCC2(CCCN2Cc2ccc(N3CCOCC3)c(Cl)c2)CC1
assay.value: > 75%
//
compound: O=C(OC(C(F)(F)F)C(F)(F)F)N1CCC2(CCN(Cc3ccc(Cl)cc3N3CC4COCC4C3)C2)CC1 (stereo not drawn)
assay.value: > 75%
//
compound: CC(=O)N1CCc2cccc(CN3CCC4(CCN(C(=O)OC(C(F)(F)F)C(F)(F)F)CC4)C3)c2C1
assay.value: > 75%
//
compound: O=C(OC(C(F)(F)F)C(F)(F)F)N1CCC2(CCN(Cc3ccc(C(F)(F)F)c(N4CCCC4)c3)C2)CC1
assay.value: > 75%

Reported inhibition at 1 µM of O=C(COc1cc(CN2CCCC23CCN(C(=O)OC(C(F)(F)F)C(F)(F)F)CC3)cc(C(F)(F)F)c1)N1CCCC1 : > 75%

Reported inhibition at 1 µM of O=C(OC(C(F)(F)F)C(F)(F)F)N1CCC2(CCCN2Cc2ccc(C(F)(F)F)cc2N2CCC2)CC1 : > 75%

Reported inhibition at 1 µM of NC(=O)c1ccc(CN2CCCC23CCN(C(=O)OC(C(F)(F)F)C(F)(F)F)CC3)cc1C(F)(F)F : > 75%

Reported inhibition at 1 µM of CC1(C)CC2(CCN(C(=O)OC(C(F)(F)F)C(F)(F)F)CC2)CN1Cc1cccc(CN2CCOCC2)c1F : > 75%

Reported inhibition at 1 µM of O=C(OC(C(F)(F)F)C(F)(F)F)N1CCC2(CCCN2Cc2ccc(Cl)c(N3CCOCC3)c2)CC1 : > 75%

Reported inhibition at 1 µM of CCN1CCCc2cccc(CN3CCC4(CCN(C(=O)OC(C(F)(F)F)C(F)(F)F)CC4)C3)c21 : > 75%

---

IC50 listing for selected compounds.
target: ABHD6 (Mus musculus (Mouse), UniProt Q8R2Y0); assay: In vitro competitive activity-based protein profiling (mouse brain membrane fraction or cell lysates), ABHD6 band; assay type: biochemical; conditions: mouse proteome, competitive ABPP
Sequence (Q8R2Y0 whole entry): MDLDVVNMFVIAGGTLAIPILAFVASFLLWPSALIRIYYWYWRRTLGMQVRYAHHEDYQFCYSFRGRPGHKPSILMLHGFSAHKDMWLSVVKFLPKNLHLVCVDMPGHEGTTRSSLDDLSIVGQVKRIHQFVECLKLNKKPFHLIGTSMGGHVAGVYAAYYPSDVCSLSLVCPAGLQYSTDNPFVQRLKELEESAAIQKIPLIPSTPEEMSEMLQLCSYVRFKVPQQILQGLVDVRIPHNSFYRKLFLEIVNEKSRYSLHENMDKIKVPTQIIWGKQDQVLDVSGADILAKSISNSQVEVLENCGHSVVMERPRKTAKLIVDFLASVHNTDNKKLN

// known answers, use as guide
compound: O=C(OC(C(F)(F)F)C(F)(F)F)N1CCC2(CCCN2Cc2cccc(N3CCC4(CCOCC4)C3)c2Cl)CC1 [Example 117]
assay.metric: IC50
assay.value: > 1000 nM

compound: CC1(C)CC2(CCN(C(=O)OC(C(F)(F)F)C(F)(F)F)CC2)CN1Cc1cc(Cl)cc(N2CCOCC2)c1 [Example 186]
assay.metric: IC50
assay.value: 100 to 1000 nM

Item COc1cc(Cl)ccc1CN1CC2(CCN(C(=O)OC(C(F)(F)F)C(F)(F)F)CC2)CC1(C)C [Example 49] was tested on ABHD6 (Mus musculus (Mouse), UniProt Q8R2Y0); the reported IC50 is > 1000 nM

Item O=C(OC(C(F)(F)F)C(F)(F)F)N1CCC2(CCCN2Cc2cccc(OCCN3CCCC3)c2)CC1 [Example 12] was tested on ABHD6 (Mus musculus (Mouse), UniProt Q8R2Y0); the reported IC50 is > 1000 nM

---

inhibition at 1 µM listing for selected compounds.
target: MAGL (Mus musculus (Mouse)); assay: In vitro competitive activity-based protein profiling (mouse brain membrane fraction or cell lysates), MAGL band; type: biochemical; conditions: 1 μM, mouse proteome; read-out: MAGL % Inh 1 μM (mouse)

// known answers, use as guide
smiles.input: O=C(O)c1cc(CN2CCCC23CCN(C(=O)OC(C(F)(F)F)C(F)(F)F)CC3)ccc1C(F)(F)F
assay.value: > 75%
--
smiles.input: O=C(OC(C(F)(F)F)C(F)(F)F)N1CCC2(CCCN2Cc2cccc(N3CCC(F)CC3)c2Cl)CC1
assay.value: > 75%

Reported inhibition at 1 µM of O=C(O)C1CCN(c2cc(Cl)cc(CN3CCCC34CCN(C(=O)OC(C(F)(F)F)C(F)(F)F)CC4)c2)CC1 : > 75%

Reported inhibition at 1 µM of O=C(OC(C(F)(F)F)C(F)(F)F)N1CCC2(CCCN2Cc2cccc(N3CCOCC3)c2)CC1 : > 75%

---

inhibition at 1 µM listing for selected compounds.
target: MAGL (Mus musculus (Mouse), UniProt O35678); test: In vitro competitive activity-based protein profiling (mouse brain membrane fraction or cell lysates), MAGL band; type: biochemical; conditions: 1 μM, mouse; read-out: MAGL % Inh 1 μM (mouse)
Sequence (O35678 whole entry): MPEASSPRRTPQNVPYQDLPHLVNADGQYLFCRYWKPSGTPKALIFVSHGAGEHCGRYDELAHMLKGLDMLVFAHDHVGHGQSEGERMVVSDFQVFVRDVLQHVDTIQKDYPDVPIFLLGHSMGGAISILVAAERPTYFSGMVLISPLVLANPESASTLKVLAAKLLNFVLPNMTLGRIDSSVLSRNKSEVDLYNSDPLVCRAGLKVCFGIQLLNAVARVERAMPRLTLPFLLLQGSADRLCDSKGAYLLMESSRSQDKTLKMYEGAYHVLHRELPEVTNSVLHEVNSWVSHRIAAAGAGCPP

// known answers, use as guide
compound: O=C(O)c1ccc(CN2CCCC23CCN(C(=O)OC(C(F)(F)F)C(F)(F)F)CC3)cc1 [Example 250]
assay.value: > 75%

compound: N#Cc1ccc(CN2CCCC23CCN(C(=O)OC(C(F)(F)F)C(F)(F)F)CC3)c(N2CCC(C(=O)O)CC2)c1 [Example 249]
assay.value: > 75%

compound: O=C(O)C1CCN(c2cc(F)cc(CN3CCC4(CCN(C(=O)OC(C(F)(F)F)C(F)(F)F)CC4)C3)c2)CC1 [Example 233]
assay.value: > 75%

compound: O=C(O)C1CCN(Cc2cc(CN3CCCC34CCN(C(=O)OC(C(F)(F)F)C(F)(F)F)CC4)cc(C(F)(F)F)c2)C1 (stereo not shown) [Example 253]
assay.value: > 75%

compound: O=C(O)C1CCN(C(=O)c2cc(C(F)(F)F)ccc2CN2CCCC23CCN(C(=O)OC(C(F)(F)F)C(F)(F)F)CC3)CC1 [Example 281]
assay.value: > 75%

Reported inhibition at 1 µM of O=C(O)C1CCN(c2ccc(CN3CCC4(CCN(C(=O)OC(C(F)(F)F)C(F)(F)F)CC4)C3)cc2C(F)(F)F)CC1 [Example 228] : > 75%

Reported inhibition at 1 µM of C#Cc1ccc(CN2CCCC23CCN(C(=O)OC(C(F)(F)F)C(F)(F)F)CC3)cc1 [Example 280] : > 75%

Reported inhibition at 1 µM of O=C(O)c1ccccc1CN1CCCC12CCN(C(=O)OC(C(F)(F)F)C(F)(F)F)CC2 [Example 251] : 25 to 75%

---

molecular target: FAAH (Mus musculus (Mouse), UniProt O08914); experiment: In vitro competitive activity-based protein profiling (mouse brain membrane fraction or cell lysates), FAAH band; assay type: biochemical; conditions: 1 μM, mouse proteome; read-out: FAAH % Inh 1 μM (mouse)
assay.metric: inhibition at 1 µM

// known answers, use as guide
smiles.input: O=C(O)C1CCN(c2cc(C(F)(F)F)ccc2CN2CCC3(CCN(C(=O)OC(C(F)(F)F)C(F)(F)F)CC3)C2)CC1
inhibition at 1 µM: < 25%
--
smiles.input: O=C(O)[C@@H]1CCCN(c2cc(CN3CCCC34CCN(C(=O)OC(C(F)(F)F)C(F)(F)F)CC4)cc(C(F)(F)F)c2)C1
inhibition at 1 µM: < 25%
--
smiles.input: O=C(OC(C(F)(F)F)C(F)(F)F)N1CCC2(CCCN2Cc2cccc(N3CCOCC3)c2)CC1
inhibition at 1 µM: < 25%

We now examine a further compound.
Reported inhibition at 1 µM of O=C(OC(C(F)(F)F)C(F)(F)F)N1CCC2(CCCN2Cc2cccc(OCCN3CCOCC3)c2)CC1 : < 25%
